Target: Sialic acid-binding Ig-like lectin 9 (Homo sapiens)
Test: Hs-Siglec9 ALPHAscreen SOP 20170721
Parameters: scale not given: direction of the effect not stated beside the values
Details: 10 µM
measured.attribute: Percent Effect (%)
Give bare numbers, in %.

>>> reading("COCCN1CCN(C(=O)c2ccncc2F)Cc2cccnc21")
-2.01

Answer for every listed entry: what is its Percent Effect? The entries follow.
1. Cc1cccc(N2CC[C@@H]3CN(C(=O)c4ccco4)CCO[C@@H]3C2)n1
2. COc1ccc(CNC(=O)N(Cc2ccc(F)cc2F)C2CC2)cn1
3. O=C(Cn1cc(C(=O)O)ccc1=O)NCc1ccc(F)c(Cl)c1
4. CC(O)CN1CCN(Cc2csc(-c3ncccn3)n2)CC1 (centres undefined)

Ans:
[3.1, 9.29, -0.406, -8.16]

Answer for every listed entry: what is its Percent Effect? The entries follow.
1. CNS(=O)(=O)c1cccc(CNC(=O)c2c(C)nn(C)c2C)c1
2. Fc1cccc(N2C[C@H]3CCN(c4cccnc4)C[C@H]3C2)c1
3. Cc1ccc(C(=O)N2CCN(CC(O)c3ccc(F)cc3)CC2)s1 (centres undefined)
4. CCn1cnnc1CNC(=O)NCC(c1cccs1)N1CCCC1 (centres undefined)
5. O=C(c1ccc(F)c(F)c1)N1CCCC1CN1CCCC1 (centres undefined)
6. COc1ccccc1Oc1ncccc1CNC(=O)[C@@H](C)NC(C)=O
7. CN(Cc1nc(C2CC2)no1)C1CCCN(c2cccnn2)C1 (centres undefined)
8. Cc1occc1C(=O)N1CCC2(CCCN(CC3CCC3)C2=O)C1 (centres undefined)

Ans:
[-3.8, -4.58, 18.1, 9.73, -14.5, -7.34, 7.67, 8.02]

Answer for every listed entry: what is its Percent Effect? The entries follow.
1. CC(NC(=O)c1cc(-c2cccc(Cl)c2)no1)C(=O)N1CCCC1 (centres undefined)
2. CC(C)NC(=O)c1nnn(-c2cccc(C(F)(F)F)c2)c1C1CC1
3. COCC(=O)NC1CC2(CCN(Cc3ccco3)CC2)c2ccccc21 (centres undefined)

Ans:
1. -3.21
2. 15.4
3. 3.44

* * *

Target: Chromo domain-containing protein 1 (Saccharomyces cerevisiae (strain ATCC 204508 / S288c) (Baker's yeast)) (UniProt P32657)
Sequence (P32657 whole entry, the tested form may be a part): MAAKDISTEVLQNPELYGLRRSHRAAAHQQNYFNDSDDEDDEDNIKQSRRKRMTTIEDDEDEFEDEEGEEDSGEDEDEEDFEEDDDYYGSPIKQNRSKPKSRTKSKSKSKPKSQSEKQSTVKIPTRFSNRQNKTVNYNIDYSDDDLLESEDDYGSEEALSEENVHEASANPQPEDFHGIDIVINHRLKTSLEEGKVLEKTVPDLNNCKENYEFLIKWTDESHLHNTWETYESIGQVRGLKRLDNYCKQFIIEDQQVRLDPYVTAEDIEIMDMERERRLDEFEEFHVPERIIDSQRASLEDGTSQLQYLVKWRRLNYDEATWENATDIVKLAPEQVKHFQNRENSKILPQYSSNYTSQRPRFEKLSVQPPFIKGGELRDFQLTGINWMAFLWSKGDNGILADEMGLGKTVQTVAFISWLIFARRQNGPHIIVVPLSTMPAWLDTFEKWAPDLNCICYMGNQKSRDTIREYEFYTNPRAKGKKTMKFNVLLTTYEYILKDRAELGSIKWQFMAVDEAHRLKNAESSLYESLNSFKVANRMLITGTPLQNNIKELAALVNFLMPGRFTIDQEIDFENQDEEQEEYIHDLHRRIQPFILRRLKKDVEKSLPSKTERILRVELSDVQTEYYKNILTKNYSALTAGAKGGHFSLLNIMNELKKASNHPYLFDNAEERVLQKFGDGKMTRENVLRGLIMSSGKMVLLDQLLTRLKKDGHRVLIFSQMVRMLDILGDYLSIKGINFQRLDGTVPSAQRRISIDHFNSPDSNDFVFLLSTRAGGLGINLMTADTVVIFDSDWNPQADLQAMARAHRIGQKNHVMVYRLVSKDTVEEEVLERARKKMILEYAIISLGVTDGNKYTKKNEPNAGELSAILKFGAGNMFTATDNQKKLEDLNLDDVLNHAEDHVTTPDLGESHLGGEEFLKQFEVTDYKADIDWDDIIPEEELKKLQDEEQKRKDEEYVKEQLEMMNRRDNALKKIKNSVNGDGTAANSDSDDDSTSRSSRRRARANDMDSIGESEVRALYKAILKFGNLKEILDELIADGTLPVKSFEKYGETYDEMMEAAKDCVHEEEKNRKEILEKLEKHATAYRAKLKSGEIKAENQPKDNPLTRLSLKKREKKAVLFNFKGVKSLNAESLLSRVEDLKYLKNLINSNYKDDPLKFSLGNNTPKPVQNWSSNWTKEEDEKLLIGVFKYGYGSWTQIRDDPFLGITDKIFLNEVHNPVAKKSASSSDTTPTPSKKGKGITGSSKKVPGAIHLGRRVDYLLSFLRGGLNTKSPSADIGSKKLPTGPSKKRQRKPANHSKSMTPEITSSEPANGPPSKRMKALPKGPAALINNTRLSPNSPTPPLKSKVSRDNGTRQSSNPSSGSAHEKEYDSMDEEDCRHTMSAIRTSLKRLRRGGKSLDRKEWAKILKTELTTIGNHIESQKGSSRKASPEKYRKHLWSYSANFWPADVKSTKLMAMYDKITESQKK
Test: ScCHD-1 Enzyme Inhibition Assay; further: in the data most compounds retested in dose-response had high values
Format: functional
Set-up: scale not given: direction of the effect not stated beside the values
Conditions: 30 µM
measured.attribute: Percent Effect (%)
Answers are plain numbers, in %.

>>> reading("CC(C)(NCC(=O)NCCC#N)c1ccc2c(c1)OCCO2")
-9.99
>>> reading("COc1ccc(CS(=O)(=O)CC(=O)NCC2CC2)cc1F")
-4.08
>>> reading("CC(C)NC(=O)c1ccc2c(c1)nc1n2CCN(c2ccccc2)C1")
-10.5
>>> reading("CC(C(=O)N1CCCN(Cc2ccc(C#N)cc2)CC1)n1ccnc1 (configuration not stated)")
-7.57
>>> reading("Cc1noc(C)c1C(=O)N(C)Cc1nc(-c2ccccn2)no1")
-3.45
>>> reading("CC(=O)NCCN1CCC(c2cccs2)CC1")
-6.86
>>> reading("CCN1CC2(CC1=O)CN(C(C)=O)CCN(C(=O)c1ccco1)C2 (configuration not stated)")
-1.88
>>> reading("O=C(NCc1ccccn1)N(Cc1ccc(F)cc1F)C1CC1")
-5.13

Answer for every listed entry: what is its Percent Effect? The entries follow.
1. CC(O)CN1CCN(C(=O)c2cccn2Cc2ccncc2)CC1 (configuration not stated)
2. CCn1cc(NC(=O)NCC(C)O)cn1 (configuration not stated)
3. Cc1nc2n(n1)CC(Nc1cc(C(F)(F)F)nc3ncnn13)CC2 (configuration not stated)
4. CN(Cc1ccsc1)C(=O)c1cc2c([nH]c1=O)CCCC2=O

Ans:
1. -8.49
2. -7.2
3. -3.28
4. -6.06

* * *

Biological target: AMP-activated protein kinase, AMPK (Homo sapiens) (UniProt P54646+O43741+P54619+Q9UGJ0+Q9Y478+Q13131+Q9UGI9)
Test: AMP-dependent Kinase enzyme assay. An in vitro enzyme assay that detects ADP turnover that is directly proportional to AMPK activity. This uses naive AMPK that is activated during the assay with MK-8722
Type: functional
Set-up: scale not given: direction of the effect not stated beside the values
Settings: 30 µM
measured.attribute: Percent Effect (%)
Answers are plain numbers, in %.

>>> reading("N#Cc1cccc(C(=O)N2CCc3ncc(Cn4cccn4)n3CC2)c1")
6.89
>>> reading("CC(=O)N1CCC(C(=O)c2cc(C)cnc2N)CC1")
3.67
>>> reading("O=C(c1cccn1Cc1cccs1)N1CCN(C2CC2)CC1")
3.71
>>> reading("O=C(Cc1ccc2c(c1)OCCO2)N1CCCC(n2ccnc2)C1 (configuration not stated)")
-7.38
>>> reading("CCn1ccnc1CN1CCN(CCC(=O)NC(C)(C)C)CC1C (configuration not stated)")
-0.327
>>> reading("CC(O)CN1CCN(Cc2csc(-c3ncccn3)n2)CC1 (configuration not stated)")
-3.51
>>> reading("CC(NC(=O)NCc1cccnc1N1CCCCC1)c1nccs1 (configuration not stated)")
4.63
>>> reading("Cc1ccc(C(=O)NS(=O)(=O)c2ccccc2C)c(=O)[nH]1")
-4.75

Answer for every listed entry: what is its Percent Effect? The entries follow.
1. CS(=O)(=O)NCCCNC(=O)c1cccnc1O
2. CN1N=C(C(=O)NCc2ccc3c(c2)CCCN3C)CCC1=O
3. CCOCC(O)CN1CCN(C(=O)c2cccc(F)c2)CC1 (configuration not stated)
4. Cc1ccc(CN2CCCC3(CCN(S(C)(=O)=O)C3)C2)o1 (configuration not stated)
5. Cc1nc(CN2C(=O)COC3(CCN(Cc4nccs4)CC3)C2C)cs1 (configuration not stated)
6. CCC(CNC(=O)Nc1cnn(CC)c1)N1CCCC1 (configuration not stated)

Ans:
-3.83
30.5
-2.77
11.7
-5.34
-9.29

Answer for every listed entry: what is its Percent Effect? The entries follow.
1. O=C(Cc1ccc(-n2cccn2)cc1)N1CCCC(n2cccn2)C1 (configuration not stated)
2. CCc1c(C)nc2n(c1=O)CC(C(=O)Nc1ccccc1F)CS2 (configuration not stated)
3. COCC(NC(=O)c1cc[nH]n1)c1cccc(C(F)(F)F)c1 (configuration not stated)
4. O=c1ccc(-c2ccccc2F)nn1CCN1CCCS1(=O)=O
5. Cc1noc(C(C)C)c1C(=O)NCC(c1cccc(F)c1)N(C)C (configuration not stated)
6. COCCn1nc(C(=O)N(C)Cc2cnn(C)c2)ccc1=O

Ans:
1: -6.09; 2: -0.318; 3: -2.13; 4: -4.96; 5: 0.144; 6: -7.26

Answer for every listed entry: what is its Percent Effect? The entries follow.
1. Cc1cccc(-c2noc(CN3CCC(N4CCNC4=O)CC3)n2)c1
2. CN(C)C(=O)NC[C@H]1OC[C@@H]2CCN(Cc3ccoc3)C[C@@H]21
3. CSC(C)(C)CNC(=O)NC1CCN(C)CC1

Ans:
1: 4.11; 2: 24.1; 3: -2.46

* * *

Target: Tyrosyl-tRNA synthetase, putative (Trypanosoma cruzi (strain CL Brener)) (UniProt Q4DSP6)
Sequence (Q4DSP6 as listed by the source): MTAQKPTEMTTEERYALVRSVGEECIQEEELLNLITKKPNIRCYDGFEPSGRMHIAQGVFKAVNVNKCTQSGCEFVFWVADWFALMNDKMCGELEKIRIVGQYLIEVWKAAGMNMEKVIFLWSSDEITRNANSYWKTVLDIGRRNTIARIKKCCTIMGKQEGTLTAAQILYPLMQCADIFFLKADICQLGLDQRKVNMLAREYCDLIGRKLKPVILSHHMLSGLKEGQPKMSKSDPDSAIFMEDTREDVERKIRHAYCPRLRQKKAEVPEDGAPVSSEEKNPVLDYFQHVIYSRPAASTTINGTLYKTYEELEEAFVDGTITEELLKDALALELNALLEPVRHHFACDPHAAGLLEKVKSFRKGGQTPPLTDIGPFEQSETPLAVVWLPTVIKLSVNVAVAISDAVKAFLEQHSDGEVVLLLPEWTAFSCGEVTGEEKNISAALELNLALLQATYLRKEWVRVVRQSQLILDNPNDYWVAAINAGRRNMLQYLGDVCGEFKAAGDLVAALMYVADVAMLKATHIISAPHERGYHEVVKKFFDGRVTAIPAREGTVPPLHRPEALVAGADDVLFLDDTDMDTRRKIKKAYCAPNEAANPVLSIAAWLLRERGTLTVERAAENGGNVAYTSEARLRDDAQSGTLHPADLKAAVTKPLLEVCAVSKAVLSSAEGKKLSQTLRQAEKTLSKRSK
Experiment: Trypanosoma cruzi tyrosyl tRNA synthetase (TcYRS) SOP
Type: functional
Parameters: scale not given: direction of the effect not stated beside the values
Conditions: 30 µM
Label condition met when Percent Effect < 20%; otherwise condition not met.

// below: answered molecules
>>> class_label("O=C(c1ccncc1F)N1CCN(CC2CC2)c2ncccc2C1")
"condition met"
>>> class_label("CC(O)CN1CCC(CNCc2ccc(S(C)(=O)=O)cc2)CC1 (stereo not drawn)")
"condition met"
>>> class_label("COc1ccc(CNCC2CC2)cc1F")
"condition met"
>>> class_label("Cc1nn(CCO)c(C)c1CNC1CCc2c(Cl)cccc21 (stereo not drawn)")
"condition met"
>>> class_label("O=C(CCc1cccs1)N1CCC(N2CCNC2=O)CC1")
"condition not met"
>>> class_label("CC(C)c1nc(CN2CCCCC2)cs1")
"condition met"

Now, please, on to the next molecule.
Q: Consider COCCN1CCN(CCCS(C)(=O)=O)CC1C (stereo not drawn) . Does its Percent Effect lie strictly below 20%?
Ans: condition not met

* * *

Biological target: Tyrosyl-tRNA synthetase, putative (Trypanosoma cruzi (strain CL Brener)) (UniProt Q4DSP6)
Experiment: Trypanosoma cruzi tyrosyl tRNA synthetase (TcYRS) _High Tyrosine SOP; further: in the data most compounds retested in dose-response had high values
Assay type: functional
Set-up: scale not given: direction of the effect not stated beside the values
Conditions: 30 µM
Assign Y to entries whose Percent Effect meets or exceeds 4%; assign N to the rest.

// below: answered molecules
>>> class_label("Cc1ccc(NC2CCN(C(=O)CCNS(C)(=O)=O)CC2)nn1")
"N"
>>> class_label("CN(CCN1CCCCCC1)C(=O)c1cc(CN2CCC(O)CC2)on1")
"Y"
>>> class_label("CC(C)CC1SCC(=O)Nc2c1cnn2-c1ccc(F)cc1 (stereo unspecified)")
"Y"
>>> class_label("Cc1ccc([C@]2(O)CC[C@H]3CN(Cc4cccc(Cl)c4Cl)C[C@H]32)nc1")
"Y"
>>> class_label("CN(C(=O)Cc1ccc(NC(=O)NC2CCC2)cc1)c1ccccc1")
"Y"

Q: For this molecule, is measured Percent Effect 4% or higher? O=C1CC(c2ccccc2)c2snc(C(=O)O)c2N1 (stereo unspecified)
Ans: N

Q: For this molecule, is measured Percent Effect 4% or higher? CS(=O)(=O)N1CC[C@H]2[C@H](C[C@@H](Cn3cncn3)N2CC2CC2)C1
Ans: N

Q: For this molecule, is measured Percent Effect 4% or higher? Cc1cc(C)n(CC2CCCN2C(=O)c2ccc3c(c2)OCO3)n1 (stereo unspecified)
Ans: N

Q: For this molecule, is measured Percent Effect 4% or higher? Cc1cc(CN(C)Cc2cc3c(cc2OC(F)F)OCO3)on1
Ans: N

Q: For this molecule, is measured Percent Effect 4% or higher? Cc1cnn(CC2CN(c3cnc4ccccc4n3)CCO2)c1 (stereo unspecified)
Ans: Y

Q: For this molecule, is measured Percent Effect 4% or higher? Cn1cc(CN2CC3(CCN(C(=O)c4cscn4)C3)C2)cn1
Ans: Y

Measured values drawn from ChEMBL document CHEMBL3988442 for this set.
